Tested on: wild oat
Assay: Test C postemergence herbicide test
Format: in vivo, Avenafatua
Conditions: postemergence, 125 g ai/ha; scale 0 to 100
measured-quantity: Plant response rating, Oat, Wild

compound=CCn1nc(C(C)(C)C)cc1C(=O)Nc1cc(OC(F)(F)F)ccc1F observed_result=45
compound=CN(C)C(=O)c1cccc(NC(=O)c2nn(C(C)(C)C)nc2Br)c1 observed_result=60
compound="CCN1N=C(C(C)(C)C)CC1C(=O)Nc1cc(C(=O)N(C)C)ccc1F (centres unmarked)" observed_result=35
compound=C=CCNC(=O)c1ccc(F)c(NC(=O)c2cc(C(C)(C)C)nn2CC)c1 observed_result=60
compound=C=CCN(CC=C)C(=O)c1cccc(NC(=O)c2nn(C(C)(C)C)nc2CC)c1 observed_result=45

---

Test system: velvetleaf
Experiment: Test B pre-/postemergence herbicide test
Format: in vivo, Abutilon theophrasti
Conditions: postemergence, 125 g ai/ha; scale 0 to 100
measured-quantity: Velvetleaf plant response rating

compound="CCNC(=S)c1cccc(NC(=O)c2nn(C(C)(C)C)nc2C)c1 [Compound 420]" observed_result=20
compound="Cc1nn(C(C)(C)C)nc1C(=O)Nc1cccc(C(=O)N(C)C)n1 [Compound 436]" observed_result=0
compound="C=CCN(CC=C)C(=O)c1cccc(NC(=O)c2nn(C(C)(C)C)nc2CC)c1 [Compound 415]" observed_result=30
compound="CCN(C)C(=O)c1cccc(NC(=O)c2nn(C(C)C)nc2C)c1 [Compound 407]" observed_result=20
compound="Cc1nn(C(C)(C)C)nc1C(=O)Nc1cccc(C(=S)N(C)C)c1 [Compound 419]" observed_result=20

---

System: velvetleaf
Experiment: Test B pre-/postemergence herbicide test
Type: in vivo, Abutilon theophrasti
Conditions: 125 g ai/ha; 0 is no effect, 100 is complete control; preemergence
Please assign no (0) whenever Plant response rating (0 to 100 scale), Velvetleaf is at or above 10, and yes (1) whenever it is below.

compound_structure=CCc1nn(C(C)C)nc1C(=O)Nc1cccc(C(=O)N2CCCCC2)c1 discrete_label="no (0)"
compound_structure=CCOC(=O)c1cccc(NC(=O)c2nn(C(C)C)nc2C)c1 discrete_label="yes (1)"
compound_structure=Cc1nn(C(C)C)nc1C(=O)Nc1cc(C(=O)N2CC=CC2)ccc1F discrete_label="yes (1)"
compound_structure=Cc1nn(C(C)(C)C)nc1C(=O)Nc1cccc(C(=S)N(C)C)c1 discrete_label="no (0)"
compound_structure=C=CCNC(=O)c1cccc(NC(=O)c2cc(C(C)(C)C)nn2C)n1 discrete_label="no (0)"
compound_structure=C=CCN(CC=C)C(=O)c1cccc(NC(=O)c2nn(C(C)(C)C)nc2CC)c1 discrete_label="no (0)"
compound_structure=CCNC(=O)c1ccc(F)c(NC(=O)c2nn(C(C)C)nc2C)c1 discrete_label="yes (1)"

---

System: corn
Test: Test B pre-/postemergence herbicide test
Format: in vivo, Zea mays
Conditions: 125 g ai/ha; 0 is no effect, 100 is complete control; preemergence
measured-quantity: Plant response rating (0 to 100 scale), Corn

compound="CCNC(=O)c1cccc(NC(=O)c2nn(C3CCCC3)nc2CC)c1 [Compound 356]" observed_result=10
compound="CCc1nn(C(C)C)nc1C(=O)Nc1cccc(C(=O)N2CCCCC2)c1 [Compound 385]" observed_result=30
compound="CCN(CC)C(=O)c1cccc(NC(=O)c2cc(C(C)(C)C)nn2C)n1 [Compound 314]" observed_result=0
compound="CCNC(=O)c1cccc(NC(=O)c2nn(C(C)C)nc2CC)c1 [Compound 357]" observed_result=0
compound="Cn1nc(C(C)(C)C)cc1C(=O)Nc1cccc(C(=O)NC2CC2)n1 [Compound 315]" observed_result=0
compound="Cc1nn(C(C)(C)C)nc1C(=O)Nc1cc(C(=O)N(C)C)ccc1F [Compound 378]" observed_result=30
compound="C=CCNC(=O)c1ccc(F)c(NC(=O)c2cc(C(C)(C)C)nn2CC)c1 [Compound 430]" observed_result=50
compound="C#CCNC(=O)c1ccc(F)c(NC(=O)c2nn(C(C)(C)C)nc2CC)c1 [Compound 389]" observed_result=0
compound="CN(C)C(=O)c1cccc(NC(=O)c2nn(C(C)(C)C)nc2Br)c1 [Compound 429]" observed_result=40
compound="CCSCNC(=O)c1cccc(NC(=O)c2cc(C(C)(C)C)nn2CC)c1 [Compound 329]" observed_result=0

---

System: common ragweed
Experiment: Test C pre-/postemergence herbicide test
Format: in vivo, Ambrosia elatior
Set-up: key: 0 = no effect, 100 = complete control
Conditions: 62 g ai/ha; preemergence; scale 0 to 100
Listed here: items and their measured Plant response rating, Ragweed.
measured-quantity: Plant response rating, Ragweed

compound="CCc1nn(C(C)C)nc1C(=O)Nc1cccc(C(=O)N(C)CC)c1 [Compound 386]" observed_result=5
compound="CCNC(=O)c1ccc(F)c(NC(=O)c2cc(C3(C)CC3)nn2CC)c1 [Compound 300]" observed_result=5
compound="CCn1nc(C(C)(C)C)cc1C(=O)Nc1ccc(OC)c(OC)c1 [Compound 298]" observed_result=0
compound="CCNC(=O)c1ccc(F)c(NC(=O)c2cn(C(C)(C)C)nc2CC)c1 [Compound 193]" observed_result=0

---

System: cocklebur
Test: Test B pre-/postemergence herbicide test
Assay type: in vivo, Xanthium strumarium
Conditions: postemergence, 125 g ai/ha; visual rating, scale 0 (no effect) to 100 (complete control)
# Cocklebur plant response rating annotations
measured-quantity: Cocklebur plant response rating

compound_structure=CCn1nc(C(C)(C)C)cc1C(=O)Nc1cccc(C(C)=O)c1 tested_on=cocklebur observed_result=70
compound_structure=CCc1nc(C(C)(C)C)sc1C(=O)Nc1cccc(C(=O)N(CC)CC)n1 tested_on=cocklebur observed_result=0
compound_structure=CCn1nc(C(C)(C)C)cc1C(=O)Nc1ccnc(C(=O)N(C)C)c1 tested_on=cocklebur observed_result=0
compound_structure=CCNC(=O)c1ccc(F)c(NC(=O)c2cn(C(C)(C)C)nc2CC)c1 tested_on=cocklebur observed_result=20
compound_structure=CCN(C)C(=O)c1ccc(F)c(NC(=O)c2cc(C(C)(C)C)nn2CC)n1 tested_on=cocklebur observed_result=0
compound_structure=CCNC(=O)c1cncc(NC(=O)c2cc(C(C)(C)C)nn2CC)c1 tested_on=cocklebur observed_result=0
compound_structure=CC(=O)c1cccc(NC(=O)c2sc(C(C)(C)C)nc2C)c1 tested_on=cocklebur observed_result=0
compound_structure=C#CCNC(=O)c1ccc(F)c(NC(=O)c2cc(C(C)(C)C)nn2CC)n1 tested_on=cocklebur observed_result=0
compound_structure=CCCn1nc(C(C)(C)C)cc1C(=O)Nc1cccc(C(C)=NO)c1 tested_on=cocklebur observed_result=100

---

Tested on: pigweed
Assay: Test B pre-/postemergence herbicide test
Format: in vivo, Amaranthus retroflexus
Details: postemergence, 500 g ai/ha; scale 0 to 100, 0 is no effect, 100 is complete control
measured-quantity: Pigweed plant response rating

compound="Cn1nc(C(C)(C)C)cc1C(=O)Nc1cccc(C(=O)NC2CC2)n1 [Compound 315]" tested_on=pigweed observed_result=50
compound="CCNC(=O)c1ccc(F)c(NC(=O)c2cc(C3(C)CC3)nn2CC)c1 [Compound 300]" tested_on=pigweed observed_result=90
compound="CCNC(=O)c1cc(NC(=O)c2cc(C(C)(C)C)nn2CC)ccn1 [Compound 257]" tested_on=pigweed observed_result=80
compound="CCOC(=O)c1cccc(NC(=O)c2cc(C3(C)CC3)nn2CC)c1 [Compound 295]" tested_on=pigweed observed_result=100
compound="CCn1nc(C2(C)CC2)cc1C(=O)Nc1cc(C(=O)N2CC=CC2)ccc1F [Compound 301]" tested_on=pigweed observed_result=90

---

Tested on: rice
Experiment: Test B pre-/postemergence herbicide test
Type: in vivo, Oryza sativa
Conditions: 125 g ai/ha; 0 = no effect, 100 = complete control; preemergence
The entries below come with measured Rice plant response rating (0 to 100 scale) values attached.
measured-quantity: Rice plant response rating (0 to 100 scale)

compound_structure=CCc1nc(C(C)(C)C)sc1C(=O)Nc1cccc(C(=O)NCC2CC2)c1 observed_result=10
compound_structure=CCNC(=O)c1cncc(NC(=O)c2cc(C(C)(C)C)nn2CC)c1 observed_result=0
compound_structure=CCn1nc(C(C)(C)C)cc1C(=O)Nc1ccnc(C(=O)N2CC=CC2)c1 observed_result=10
compound_structure=CCNC(=O)c1ccc(F)c(NC(=O)c2cc(C3(C)CC3)nn2CC)c1 observed_result=40
compound_structure=C=CCN(CC=C)C(=O)c1cncc(NC(=O)c2cc(C(C)(C)C)nn2CC)c1 observed_result=0
compound_structure=CCc1nc(C(C)(C)C)sc1C(=O)Nc1cccc(C(=O)N(CC)CC)c1 observed_result=10
compound_structure=C#CCNC(=O)c1ccc(F)c(NC(=O)c2cc(C(C)(C)C)nn2CC)n1 observed_result=20
compound_structure=CCc1nc(C(C)(C)C)sc1C(=O)Nc1cccc(C(=O)NCCF)c1 observed_result=30
compound_structure=CCNC(=O)c1ccc(F)c(NC(=O)c2cn(C(C)(C)C)nc2CC)c1 observed_result=80
compound_structure=CCN(C)C(=O)c1ccc(F)c(NC(=O)c2cc(C(C)(C)C)nn2CC)n1 observed_result=0
compound_structure=CCN(CC)C(=O)c1cccc(NC(=O)c2sc(C(C)(C)C)nc2C)c1 observed_result=0
compound_structure=CCn1nc(C(C)(C)C)cc1C(=O)Nc1cc(C(=O)N(C)OC)ccc1F observed_result=60
